- Test system: mHTT protein
- test.summary: mHTT protein assay (2B7-MW1, Mesoscale Discovery)
- Format: cell-based, human
- conditions.used: GM04724 (CAG 70/20) Huntington's disease patient lymphoblast cells, 48 hours, 2B7-MW1 MSD; read-out: HTT Potency - Protein EC50 mHTT (average)
Reported EC50 values follow for various compounds

compound: Oc1cc(-c2cn[nH]c2)ccc1-c1ccc(O[C@H]2C[C@@H]3CC[C@@H](N3)[C@@H]2F)nn1 (single isomer, unassigned)
EC50: 0.01 to 15 nM

compound: Oc1cc2ncccc2cc1-c1ccc(O[C@@H]2C[C@H]3CCC[C@H](N3)[C@@H]2F)nn1 (single isomer, unassigned)
EC50: 501 to 10000 nM

compound: Oc1cc(-n2ccnc2)ccc1-c1ccc(O[C@@H]2C[C@H]3CC(F)(F)[C@@H](C2)N3)nn1 (single isomer, unassigned)
EC50: 501 to 10000 nM

compound: Oc1cc(-c2nnco2)ccc1-c1ccc(O[C@@H]2C[C@H]3CCC[C@H](N3)[C@@H]2F)nn1 (single isomer, unassigned)
EC50: 51 to 100 nM

compound: Cn1ccc(-c2ccc(-c3ccc(O[C@@H]4C[C@H]5CCC[C@H](N5)[C@@H]4F)nn3)c(O)c2)n1 (single isomer, unassigned)
EC50: 16 to 50 nM

compound: Cn1ccc(-c2cc(O)c(-c3ccc(O[C@H]4C[C@@H]5CCC[C@@H](N5)[C@H]4F)nn3)cc2F)cc1=O (single isomer, unassigned)
EC50: 0.01 to 15 nM

Query: If you can, please state the reported EC50 value of Cn1cc(-c2ccc(-c3ccc(O[C@H]4C[C@]5(C)CC[C@@](C)(N5)[C@H]4F)nn3)c(O)c2)cn1 (single isomer, unassigned) .
Reply: 51 to 100 nM

Query: If you can, please state the reported EC50 value of Oc1cc(-c2cn[nH]c2)ccc1-c1ccc(O[C@H]2C[C@@H]3CCC[C@@H](N3)[C@@H]2F)nn1 (single isomer, unassigned) .
Reply: 0.01 to 15 nM

Query: If you can, please state the reported EC50 value of Cn1c(=O)oc2cc(-c3ccc(O[C@@H]4C[C@H]5CCC[C@H](N5)[C@@H]4F)nn3)c(O)cc21 (single isomer, unassigned) .
Reply: 501 to 10000 nM
